Molecular target: Human recombinant 5-HT2B (Homo sapiens (Human))
Sequence (P41595 whole entry): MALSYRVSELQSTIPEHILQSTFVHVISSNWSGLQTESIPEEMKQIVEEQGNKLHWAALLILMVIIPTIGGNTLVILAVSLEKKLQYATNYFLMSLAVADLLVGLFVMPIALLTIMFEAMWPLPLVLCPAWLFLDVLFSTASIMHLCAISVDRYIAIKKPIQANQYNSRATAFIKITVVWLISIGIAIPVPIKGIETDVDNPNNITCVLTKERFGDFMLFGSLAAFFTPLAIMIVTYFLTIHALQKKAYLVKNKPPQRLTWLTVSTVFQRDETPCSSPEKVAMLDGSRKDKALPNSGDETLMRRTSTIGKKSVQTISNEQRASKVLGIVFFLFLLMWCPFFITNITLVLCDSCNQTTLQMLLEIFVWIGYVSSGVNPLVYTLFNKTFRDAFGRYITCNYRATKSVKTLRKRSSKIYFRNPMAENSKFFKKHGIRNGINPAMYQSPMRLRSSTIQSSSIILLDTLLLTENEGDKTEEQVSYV
Test: Serotonin 5HT2B radioligand binding assay
pKi: −log10 of the molar value. Counter-ions that a name gives are not always drawn.
experimentalReadout: pKi

O=C1COc2ccc(OCCCCN3CCN(c4cccc(Cl)c4Cl)CC3)cc2N1 [Compound B, hydrochloride]; 9.72

---

Biological target: Human recombinant 5-HT7 (Homo sapiens (Human))
Sequence (P34969 whole entry): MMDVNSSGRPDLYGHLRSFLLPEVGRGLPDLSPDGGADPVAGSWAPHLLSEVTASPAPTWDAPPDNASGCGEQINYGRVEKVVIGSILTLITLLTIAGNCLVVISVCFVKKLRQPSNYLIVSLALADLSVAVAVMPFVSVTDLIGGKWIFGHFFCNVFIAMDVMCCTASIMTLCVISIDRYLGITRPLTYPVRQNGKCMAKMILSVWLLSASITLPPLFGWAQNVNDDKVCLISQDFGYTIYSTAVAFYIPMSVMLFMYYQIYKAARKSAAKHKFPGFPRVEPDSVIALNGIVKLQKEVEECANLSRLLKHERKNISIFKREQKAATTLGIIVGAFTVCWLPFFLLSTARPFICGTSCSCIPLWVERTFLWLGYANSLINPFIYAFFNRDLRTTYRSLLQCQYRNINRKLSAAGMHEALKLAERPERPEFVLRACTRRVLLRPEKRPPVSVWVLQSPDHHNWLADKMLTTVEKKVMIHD
Experiment: Serotonin 5HT7 radioligand binding assay
pKi: −log10 of the molar value. Structures can show the parent of a compound that is named as a salt.
experimentalReadout: pKi

O=C1COc2ccc(OCCCCN3CCN(c4cccc(Cl)c4Cl)CC3)cc2N1 [Compound B, hydrochloride]; 8.57

---

Biological target: Human recombinant 5-HT6 (Homo sapiens (Human), UniProt P50406)
Sequence (P50406 whole entry): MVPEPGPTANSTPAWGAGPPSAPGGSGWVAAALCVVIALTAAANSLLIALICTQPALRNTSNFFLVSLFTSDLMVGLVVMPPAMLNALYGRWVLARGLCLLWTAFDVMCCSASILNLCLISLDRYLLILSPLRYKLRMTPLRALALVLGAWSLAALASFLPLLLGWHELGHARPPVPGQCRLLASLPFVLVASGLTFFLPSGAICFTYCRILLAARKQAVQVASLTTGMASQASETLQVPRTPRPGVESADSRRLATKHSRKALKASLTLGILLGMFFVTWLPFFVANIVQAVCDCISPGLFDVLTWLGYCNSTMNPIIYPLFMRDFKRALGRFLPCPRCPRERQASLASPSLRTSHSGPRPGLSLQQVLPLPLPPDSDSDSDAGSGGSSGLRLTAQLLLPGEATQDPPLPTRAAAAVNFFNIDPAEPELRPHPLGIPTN
Assay: Serotonin 5HT6 radioligand binding assay
pKi: −log10 of the molar value. Where a name gives a salt, the structure may show the parent alone.
experimentalReadout: pKi

O=C1COc2ccc(OCCCCN3CCN(c4cccc(Cl)c4Cl)CC3)cc2N1 [Compound B, hydrochloride]; 7.29

All values here come from patent US10441590B2.
